Sourced from the METLIN SMRT retention time set (Domingo-Almenara et al. 2019)

Experiment: gradient 5% acetonitrile 3 min, to 50% in 2 min, to 85% in 15 min, held 3 min, 100 µL/min
Settings: column: Zorbax Extend-C18 2.1 x 50 mm; eluents: water / acetonitrile, 0.1% formic acid
EXPERIMENTAL READOUT: RP-LC retention time (s)

Sample records with RP-LC retention time:
# COMPOUND, UNIT DESCRIPTOR, RP-LC retention time
rows = [
    ("CCOc1ccc(-c2noc(Cn3cnc4c(cnn4-c4cc(Cl)ccc4C)c3=O)n2)cc1OC", "s", 1030),
    ("Cc1cc(C)c(CN2CCn3c(nn(C)c3=O)C2)c(C)c1", "s", 868),
    ("CN(C(=O)Cn1cnc2nc3c(cc2c1=O)CCCC3)c1ccccc1F", "s", 722),
    ("CCS(=O)(=O)N1CCc2nc(-c3ccc(OC)cc3)ncc2C1", "s", 805),
    ("CC1(O)CCOC2(CCN(C(=O)C3CCCC3)CC2)C1 (stereo not drawn)", "s", 662),
    ("COc1ccccc1-c1nc(C2CC(=O)N(c3ccc(F)c(Cl)c3)C2)no1 (stereo not drawn)", "s", 1020),
    ("O=C(NCC1CCOCC1)c1cccc(Br)c1", "s", 733),
    ("Cc1csc(-c2cc(S(=O)(=O)Nc3cc(F)ccc3Cl)cn2CC(=O)N2CCCC2)n1", "s", 957),
]

I = COc1ccc2c(c1OC)C(=O)N1N=C(c3ccc(-c4ccccc4)cc3)CC21 (stereo not drawn)
II = O=C(NCc1cccnc1)C1c2ccccc2C(=O)N1C1CCCCCC1 (stereo not drawn)
Query :: # argmax over RP-LC retention time for candidates I and II Your choice should be expressed through its label.
Result :: I
(I: 927 s, II: 624 s)

---

Test: gradient 5% acetonitrile 3 min, to 50% in 2 min, to 85% in 15 min, held 3 min, 100 µL/min
Details: column: Zorbax Extend-C18 2.1 x 50 mm; eluents: water / acetonitrile, 0.1% formic acid
EXPERIMENTAL READOUT: RP-LC retention time (s)

Sample records with RP-LC retention time:
# MOLECULE, MEASUREMENT
measured = [
    ("CCn1c(=O)oc2cc(-c3noc(-c4ccc(Cl)cc4OC)n3)ccc21", 1170),
    ("COc1ccc(OC)c(NC(=O)COc2cc(C)nc(N3CCCC3)n2)c1", 650),
    ("CCN(CC)CCCNC(=O)Cn1c2ccccc2c2cnn(C)c(=O)c21", 596),
    ("O=C(C1CCN(S(=O)(=O)c2ccc(-c3noc(C4CCCC4)n3)cc2)CC1)N1CCCC1", 1030),
    ("Cn1c(N2CCC(C(=O)N3CCN(c4cccc(C(F)(F)F)c4)CC3)CC2)cc(=O)n(C)c1=O", 814),
]

I = CCN1CCN(CCCNC(=O)C2Cn3cccc3C(=O)N2CC(C)C)CC1 (stereo unspecified)
II = O=C(O)c1nnn(-c2ccc(Cl)cc2)c1C(F)(F)F
III = Cc1cccc(N2CCN(c3ccc4nnc(CCc5nc(-c6ccccc6C)no5)n4n3)CC2)c1
Query :: Rank items: key RP-LC retention time, increasing. Give the labels in the order requested.
Result :: I, II, III

1 = O=C(Cn1cccc1-c1nc(-c2ccc(Cl)cc2)cs1)N1CCN(c2ccccn2)CC1
2 = CC(C)OCCCNc1nc(Nc2ccc3c(c2)OCO3)c2cnn(-c3ccccc3)c2n1
Query :: Pick one, 1 or 2 : lowest reported RP-LC retention time. Your choice should be expressed through its label.
Result :: 1
(1: 772 s, 2: 1140 s)

P = CCN1c2ccc(F)cc2C(=O)NC12CCN(C(=O)Cc1ccc(Cl)cc1)CC2
Q = COc1ccccc1N1CCN(CCNC(=O)c2c(F)cccc2F)CC1
Query :: # argmax over RP-LC retention time for candidates P and Q Your choice should be expressed through its label.
Result :: P

---

Assay: gradient 5% acetonitrile 3 min, to 50% in 2 min, to 85% in 15 min, held 3 min, 100 µL/min
Settings: column: Zorbax Extend-C18 2.1 x 50 mm; eluents: water / acetonitrile, 0.1% formic acid
EXPERIMENTAL READOUT: RP-LC retention time (s)

Sample records with RP-LC retention time:
# COMPOUND, MEASUREMENT
records = [
    ("CCOc1cc(C2NC(=O)c3[nH]nc(-c4cccc(OC)c4)c32)ccc1O (centres undefined)", 669),
    ("CCc1nn2c(CNS(=O)(=O)c3cc(C)ccc3C)c(-c3ccccc3)nc2s1", 986),
    ("Cc1cc2[nH]c(C(=O)Nc3ccc(C)c(F)c3)c(CN3CCOCC3)c2s1", 738),
]

P = Cc1ccc2c(c1)N(S(C)(=O)=O)CCC(C(=O)NCc1ccco1)O2 (centres undefined)
Q = CCOc1ccc(-c2noc(Cc3nnc(-c4ccc(C)c(F)c4)o3)n2)cc1
Query :: Pick one, P or Q : lowest reported RP-LC retention time. Your choice should be expressed through its label.
Result :: P

---

Assay: gradient 5% acetonitrile 3 min, to 50% in 2 min, to 85% in 15 min, held 3 min, 100 µL/min
Details: column: Zorbax Extend-C18 2.1 x 50 mm; eluents: water / acetonitrile, 0.1% formic acid
EXPERIMENTAL READOUT: RP-LC retention time (s)

Sample records with RP-LC retention time:
# COMPOUND, EXPERIMENTAL READOUT, MEASUREMENT
data = [
    ("O=C1CC(C(=O)N2CCc3ccccc3C2)CN1CCc1c[nH]c2ccc(F)cc12 (stereo not drawn)", "RP-LC retention time", 804),
    ("Cn1nc(N2CCC(NC(=O)c3ccc[nH]c3=O)C2)ccc1=O (stereo not drawn)", "RP-LC retention time", 575),
    ("COCCNC(=O)C(C)n1c(=O)c(C(F)(F)F)nc2cc(C)c(C)cc21 (stereo not drawn)", "RP-LC retention time", 986),
    ("O=c1n(Cc2cccc(Cl)c2)nc2ccc(S(=O)(=O)N3CCCCC3)cn12", "RP-LC retention time", 989),
]

I = Cc1ccn2cc(-c3ccc(NS(=O)(=O)c4ccc5nc(C)sc5c4)cc3)nc2n1
II = Cc1cc(C)c(OCC(=O)N(Cc2ccc(C)o2)C2CCS(=O)(=O)C2)c(C)c1 (stereo not drawn)
Query :: # argmax over RP-LC retention time for candidates I and II Your choice should be expressed through its label.
Result :: II
(II: 1030 s, I: 641 s)

---

Experiment: gradient 5% acetonitrile 3 min, to 50% in 2 min, to 85% in 15 min, held 3 min, 100 µL/min
Conditions: column: Zorbax Extend-C18 2.1 x 50 mm; eluents: water / acetonitrile, 0.1% formic acid
EXPERIMENTAL READOUT: RP-LC retention time (s)

# COMPOUND, EXPERIMENTAL READOUT, UNIT DESCRIPTOR, MEASUREMENT
records = [
    ("COC(=O)c1ccc(NC(=O)C(=O)NCC2CCN(Cc3cccs3)CC2)cc1", "RP-LC retention time", "s", 567),
]

I = Cc1ccc(-c2noc(-c3ccc(N4CCN(c5ccccn5)CC4)nc3)n2)cc1
II = O=C(NCCCN1CCCC1)c1ccc(CS(=O)Cc2ccccc2Cl)o1 (centres undefined)
Query :: Pick one, I or II : lowest reported RP-LC retention time. Your choice should be expressed through its label.
Result :: II

A = Cc1sc2ncn(CC(=O)NCCCC(=O)N3CCCC(C)C3)c(=O)c2c1C (centres undefined)
B = COc1ccccc1-c1c(C(F)(F)F)oc2cc(OC(=O)C3CC3)ccc2c1=O
Query :: Pick one, A or B : lowest reported RP-LC retention time. Your choice should be expressed through its label.
Result :: A

---

Assay: gradient 5% acetonitrile 3 min, to 50% in 2 min, to 85% in 15 min, held 3 min, 100 µL/min
Conditions: column: Zorbax Extend-C18 2.1 x 50 mm; eluents: water / acetonitrile, 0.1% formic acid
EXPERIMENTAL READOUT: RP-LC retention time (s)

# COMPOUND, RP-LC retention time (s)
rows = [
    ("OC[C@@H]1CN(Cc2ccccn2)C[C@H]1c1nc(-c2cccnc2)no1", 551),
    ("COCCCNC(=O)c1ccc2cnn(Cc3ccc(Cl)cc3)c2c1", 812),
    ("CCNC(=O)N1CC=C(C(=O)Nc2ccc(F)cc2)CC1", 672),
    ("OC(COc1ccccc1Cl)Cn1c(C2CC2)nc2ccccc21 (stereo unspecified)", 693),
    ("Cc1ccc(-n2cc3c(N4CCCC(C(=O)NCc5ccccc5C(F)(F)F)C4)ncnc3n2)cc1 (stereo unspecified)", 775),
    ("CC(=O)N(C1CC1)C1CCOC2(CCN(C(=O)c3ccsc3)CC2)C1 (stereo unspecified)", 673),
]

---

Assay: gradient 5% acetonitrile 3 min, to 50% in 2 min, to 85% in 15 min, held 3 min, 100 µL/min
Details: column: Zorbax Extend-C18 2.1 x 50 mm; eluents: water / acetonitrile, 0.1% formic acid
EXPERIMENTAL READOUT: RP-LC retention time (s)

# MOLECULE, RP-LC retention time (s)
data = [
    ("Cc1cc2c(cc1S(=O)(=O)N(C)CC(=O)N1CCN(c3ccccn3)CC1)OCC(=O)N2", 583),
    ("COc1ccc(-c2noc(Cc3nnc(-c4cccc(Cl)c4)o3)n2)cc1OC", 973),
    ("Cc1cccc(NC(=O)C2CCCN2S(=O)(=O)c2cc3c(cc2Cl)NC(=O)CO3)c1C (stereo not given)", 891),
    ("Cc1ccc(C2=NC3(CCN(C(=O)c4ccsc4)CC3)ON2)cc1", 737),
    ("Cc1ccnc(N2CCCC(C(=O)NCCCN3CCCCCC3)C2)n1 (stereo not given)", 586),
]

a = CC(=O)N1CCc2cc(N3CC(C(=O)NCc4ccccc4C(F)(F)F)CC3=O)ccc21 (stereo not given)
b = COc1ccc(-c2noc(C3(NC(=O)c4cccc(C#N)c4)CCCCC3)n2)cc1
Query :: # argmax over RP-LC retention time for candidates a and b Your choice should be expressed through its label.
Result :: b

A = CCC(=O)Nc1ccc2c(c1)nc(CN1CCOCC1)n2C(C)C
B = Cn1cccc1C(=O)C(=O)Nc1ccc(Cl)cc1F
Query :: # argmax over RP-LC retention time for candidates A and B Your choice should be expressed through its label.
Result :: B
(B: 1080 s, A: 587 s)
